Biological target: Hemoglobin HbA (Homo sapiens) (UniProt P69905+P68871)
Sequence (P68871 2-147 partner limits assumed): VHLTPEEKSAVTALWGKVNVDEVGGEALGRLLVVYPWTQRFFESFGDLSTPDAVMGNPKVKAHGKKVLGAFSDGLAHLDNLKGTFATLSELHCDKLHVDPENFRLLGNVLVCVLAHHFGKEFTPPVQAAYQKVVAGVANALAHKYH
Sequence (P69905 2-142 limits assumed): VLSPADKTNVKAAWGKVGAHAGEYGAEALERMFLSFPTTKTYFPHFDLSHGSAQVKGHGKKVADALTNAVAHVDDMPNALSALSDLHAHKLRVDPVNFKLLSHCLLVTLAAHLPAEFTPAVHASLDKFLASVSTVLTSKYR
Assay: Binding affinity to hemoglobin in whole blood (unknown origin) at 1 mM incubated for 2 hrs relative to control
Assay type: tissue-based
measurement_kind: Activity (%)

Illustrative cases are given below, each with its answer.
# compound, assayed_target, test_result
measured = [
    ("O=C(/C=C/c1ncc[nH]1)c1ccccc1", "Hemoglobin HbA (Homo sapiens) (UniProt P69905+P68871)", 7),
    ("O=C(/C=C/c1ncc[nH]1)c1ccc(OC2CCCCO2)cc1 (stereo not given)", "Hemoglobin HbA (Homo sapiens) (UniProt P69905+P68871)", 9.9),
    ("COc1ccc(C(=O)/C=C/c2ncc[nH]2)cc1", "Hemoglobin HbA (Homo sapiens) (UniProt P69905+P68871)", 8.2),
]

(I) O=C(O)CCCOc1ccc(C(=O)/C=C/c2ncc[nH]2)cc1Cl
(II) COc1ccc(C(=O)/C=C/c2ncc[nH]2)cc1OC
Query block: Choose between I and II : whose measured Activity value is numerically larger? Please indicate the selected item by its label.
Result block: II

====

Molecular target: Hemoglobin HbA (Homo sapiens) (UniProt P69905+P68871)
Assay: Drug reactivity against betacys93 in hemoglobin (unknown origin) assessed as betacys93-compound adduct formation at 2 mM incubated for 16 hrs by UPLC-MS analysis relative to control
Assay type: protein-complex assay
Conditions: in the assay text read “by DTNB disulfide exchange assay” for “by UPLC-MS analysis”
measurement_kind: Activity (%)

(P) O=C(O)CCCOc1ccc(C(=O)/C=C/c2ncc[nH]2)cc1Cl
(Q) COc1ccc(C(=O)/C=C/c2ncc[nH]2)cc1OC
Query block: Lab log: flag the item ( P or Q ) with the smaller Activity figure. Please indicate the selected item by its label.
Result block: Q

====

Molecular target: Hemoglobin HbA (Homo sapiens) (UniProt P69905+P68871)
Assay: Binding affinity to hemoglobin in whole blood (unknown origin) at 2 mM incubated for 2 hrs relative to control
Type: tissue-based
measurement_kind: Activity (%)

# molecule, test_result
data = [
    ("O=C(/C=C/c1ncc[nH]1)c1ccccc1", 11.3),
    ("COc1ccc(C(=O)/C=C/c2ncc[nH]2)cc1OC", 6.5),
    ("COc1ccc(C(=O)/C=C/c2ncc[nH]2)cc1", 11.8),
]

(1) O=C(/C=C/c1ncc[nH]1)c1ccc(OC2CCCCO2)cc1 (stereo not given)
(2) O=C(O)CCCOc1ccc(C(=O)/C=C/c2ncc[nH]2)cc1Cl
Query block: Lab log: flag the item ( 1 or 2 ) with the smaller Activity figure. Please indicate the selected item by its label.
Result block: 2

====

Experiment: Drug reactivity against cysteine in PBS buffer assessed as assessed as cysteine-compound adduct formation at 2 mM incubated for 3 hrs by UPLC-MS analysis relative to control
measurement_kind: Activity (%)

# compound, Activity, %
measured = [
    ("COc1ccc(C(=O)/C=C/c2ncc[nH]2)cc1", 77),
    ("COc1ccc(C(=O)/C=C/c2ncc[nH]2)cc1OC", 53.7),
]

(1) O=C(/C=C/c1ncc[nH]1)c1ccc(OC2CCCCO2)cc1 (centres undefined)
(2) O=C(/C=C/c1ncc[nH]1)c1ccccc1
Query block: Lab log: flag the item ( 1 or 2 ) with the smaller Activity figure. Please indicate the selected item by its label.
Result block: 2
(2: 19.6%, 1: 54.9%)

====

Test: Drug reactivity against cysteine in PBS buffer at 2 mM incubated for 3 hrs by UPLC-MS analysis relative to control
measurement_kind: Activity (%)

# molecule, readout_units, Activity
measured = [
    ("COc1ccc(C(=O)/C=C/c2ncc[nH]2)cc1OC", "%", 46.3),
    ("COc1ccc(C(=O)/C=C/c2ncc[nH]2)cc1", "%", 23),
]

(P) O=C(/C=C/c1ncc[nH]1)c1ccc(OC2CCCCO2)cc1 (centres undefined)
(Q) O=C(/C=C/c1ncc[nH]1)c1ccccc1
Query block: Lab log: flag the item ( P or Q ) with the smaller Activity figure. Please indicate the selected item by its label.
Result block: P

====

Target: Hemoglobin HbA (Homo sapiens) (UniProt P69905+P68871)
Test: Drug reactivity against betacys93 in hemoglobin (unknown origin) assessed as betacys93-compound adduct formation at 2 mM incubated for 2 hrs by UPLC-MS analysis relative to control
Format: protein-complex assay
Conditions: in the assay text read “by DTNB disulfide exchange assay” for “by UPLC-MS analysis”
measurement_kind: Activity (%)

# smiles_entry, assayed_target, test_result
data = [
    ("O=C(O)CCCOc1ccc(C(=O)/C=C/c2ncc[nH]2)cc1Cl", "Hemoglobin HbA (Homo sapiens) (UniProt P69905+P68871)", 11),
    ("COc1ccc(C(=O)/C=C/c2ncc[nH]2)cc1OC", "Hemoglobin HbA (Homo sapiens) (UniProt P69905+P68871)", 9),
    ("O=C(/C=C/c1ncc[nH]1)c1ccccc1", "Hemoglobin HbA (Homo sapiens) (UniProt P69905+P68871)", 10),
    ("COc1ccc(C(=O)/C=C/c2ncc[nH]2)cc1", "Hemoglobin HbA (Homo sapiens) (UniProt P69905+P68871)", 11),
]

====

Molecular target: Hemoglobin HbA (Homo sapiens) (UniProt P69905+P68871)
Assay: Drug reactivity against betacys93 in hemoglobin (unknown origin) assessed as free SH in betacys93 at 2 mM incubated for 16 hrs by UPLC-MS analysis relative to control
Type: protein-complex assay
Settings: in the assay text read “by DTNB disulfide exchange assay” for “by UPLC-MS analysis”
measurement_kind: Activity (%)

# smiles_entry, readout_units, test_result
rows = [
    ("O=C(O)CCCOc1ccc(C(=O)/C=C/c2ncc[nH]2)cc1Cl", "%", 70),
    ("COc1ccc(C(=O)/C=C/c2ncc[nH]2)cc1", "%", 63),
    ("O=C(/C=C/c1ncc[nH]1)c1ccccc1", "%", 79),
    ("COc1ccc(C(=O)/C=C/c2ncc[nH]2)cc1OC", "%", 80),
]
